Biological target: T1, TNFR1 (Homo sapiens, UniProt P19438)
T1 chain: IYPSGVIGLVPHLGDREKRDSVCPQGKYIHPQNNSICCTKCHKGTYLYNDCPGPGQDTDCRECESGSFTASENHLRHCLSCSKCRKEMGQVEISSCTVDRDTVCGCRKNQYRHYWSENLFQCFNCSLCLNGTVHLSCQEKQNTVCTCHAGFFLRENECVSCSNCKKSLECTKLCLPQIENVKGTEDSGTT
Test: yeast display SC50
Reported apparent Kd (screen) values are given for each entry in this list.
# output: bare number, implied unit pM

R14N (designed binder) MTLQELLREEALRNAEAEAFRYALELLAEKFPEQKEYLLDLAEEIESQIRSLSGVDVEDVRKFLDKEWAWVKELLAEHPAELAEVEAARAARLAELRAEVEAKVAA :: 593
R14I (designed binder) MTLQELLREEALRIAEAEAFRYALELLAEKFPEQKEYLLDLAEEIESQIRSLSGVDVEDVRKFLDKEWAWVKELLAEHPAELAEVEAARAARLAELRAEVEAKVAA :: 539
A23K (designed binder) MTLQELLREEALRRAEAEAFRYKLELLAEKFPEQKEYLLDLAEEIESQIRSLSGVDVEDVRKFLDKEWAWVKELLAEHPAELAEVEAARAARLAELRAEVEAKVAA :: 539

Now take the following binder into account.
*Q* Please look up its apparent Kd (screen): L7I (designed binder) MTLQELIREEALRRAEAEAFRYALELLAEKFPEQKEYLLDLAEEIESQIRSLSGVDVEDVRKFLDKEWAWVKELLAEHPAELAEVEAARAARLAELRAEVEAKVAA
*A* 2250

Provenance of the data: paper PMC12416549
